# Tested on: PIM1;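 further: KINOMEscan kinase panel screen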
# Experimental setup: concentration: 1 μM, replicates: in singlicate; n = 1
Test readout: %Inh (%)

> print(dat)
                                   compound  scale.unit  experimental.result
1  Nc1nc(-c2ccc3c(N)n[nH]c3c2)cc(N2CCCC2)n1           %                   20
2  O=C(NCCNc1ccnc(Nc2ccc(F)cc2)n1)c1cc2ccccc2s1           %                    0
3  Fc1ccc(-c2ncn(CCCN3CCOCC3)c2-c2ccccn2)cc1           %                    0
4  NS(=O)(=O)c1cccc(-c2ccc3nccc(-c4cccc(S(N)(=O)=O)c4)c3c2)c1           %                    3
5  COc1ccc(Nc2nccc(N3CCC(NC(=O)Nc4cccc(C(C)=O)c4)C3)n2)cc1 (centres unmarked)           %                    0
6  Cc1nnc(-c2ccc3ncc(-c4ccc(S(C)=O)cc4)n3c2)o1 (centres unmarked)           %                    0
7  O=C(c1ccc(-c2cc(-c3c[nH]nc3-c3ccccn3)ccn2)cc1)N1CCOCC1           %                   24
8  O=C(Nc1cccc(-c2nn3ncccc3c2-c2ccnc(Nc3cccc(C(F)(F)F)c3)n2)c1)c1c(F)cccc1F           %                    0
